assay_notes: qHTS assay for small molecule antagonists of peroxisome proliferator-activated receptor delta signaling (AID 588535);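 note: cells co-treated with a PPAR-delta agonist as stimulator during compound exposure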
condition_label: HEK293T PPARd-UAS-bla, beta-lactamase FRET ratio, 18 h; 460 nm channel
Inconclusive results are not listed.
assay_metric: max response (%)

compound | readout_number
OC1CCCCC1 | 23.6
C=CC(C)(O)CCCC(C)CCCC(C)CCCC(C)C (configuration not stated) | 4.15
CCOC(=O)C1OC1c1ccccc1 (configuration not stated) | -6.92
c1ccc2c(c1)ccc1ccccc12 | -5.89
CC(=O)Nc1cccc(C)c1 | -12.4
Nc1ccccc1O | 17.2
CCCCNCC | -21.4

====

assayed_target: 3',5'-cyclic-AMP phosphodiesterase 4B (Homo sapiens) (UniProt Q07343)
Sequence (Q07343 whole entry, looked up): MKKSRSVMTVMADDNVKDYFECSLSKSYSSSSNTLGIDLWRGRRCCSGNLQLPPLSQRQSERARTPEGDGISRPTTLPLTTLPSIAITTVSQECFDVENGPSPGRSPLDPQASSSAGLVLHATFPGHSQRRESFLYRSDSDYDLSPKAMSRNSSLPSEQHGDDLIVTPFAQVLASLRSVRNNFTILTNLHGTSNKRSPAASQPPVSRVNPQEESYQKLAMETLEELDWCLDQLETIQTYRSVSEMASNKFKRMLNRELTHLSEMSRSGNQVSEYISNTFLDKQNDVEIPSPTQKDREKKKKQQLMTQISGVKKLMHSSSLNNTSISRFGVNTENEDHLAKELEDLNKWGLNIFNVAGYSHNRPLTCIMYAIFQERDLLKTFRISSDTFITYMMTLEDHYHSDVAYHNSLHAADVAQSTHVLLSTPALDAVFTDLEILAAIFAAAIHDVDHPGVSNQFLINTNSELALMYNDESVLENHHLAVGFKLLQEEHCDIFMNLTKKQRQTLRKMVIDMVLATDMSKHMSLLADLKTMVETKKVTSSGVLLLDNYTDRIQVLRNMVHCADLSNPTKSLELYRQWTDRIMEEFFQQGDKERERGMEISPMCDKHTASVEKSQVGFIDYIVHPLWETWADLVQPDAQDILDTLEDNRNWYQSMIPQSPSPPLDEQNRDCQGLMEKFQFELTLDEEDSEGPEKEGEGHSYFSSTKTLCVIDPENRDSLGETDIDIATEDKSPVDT
assay_notes: qHTS Assay for Inhibitors of PDE-IV (AID 607); note: % of control where 0% means no effect
condition_label: HEK293 ACTOne CNG channel cells, membrane potential fluorescence; series mostly up to 22.9 µM
Results filed as inconclusive are left out. Activity calls are given as the source filed them. The call rests on the fitted dose curve; in most records, active means well fitted activation curve with a large enough effect in the main read-out, with a control signal flat (not every such curve was filed as active); inconclusive means small, poorly fitted or top-dose-only effect, or effect the other way, or a change in a side signal; inactive means flat fitted curve, though single readings scatter.
assay_metric: outcome

chem_smiles | assay_metric | result
N=c1nc(N)nc(N)n1-c1ccc(S(N)(=O)=O)cc1 | outcome | inactive
C[C@H]1C[C@H]2[C@H]3CCC4=CC(=O)C=C[C@@]4(C)[C@]3(F)[C@H](O)C[C@]2(C)[C@@]1(O)C(=O)COP(=O)(O)O | outcome | inactive
O=C1C(=O)c2ccccc2C(O)=C1C(CCc1ccccc1)C1=C(O)c2ccccc2C(=O)C1=O | outcome | inactive
CN(C)C(=O)/N=N\C(=O)N(C)C | outcome | inactive

====

assay_notes: Cell Viability - LYMP2-001 (AID 921);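 note: cells exposed to compound for 24 h at 37 °C; nearly all actives have a fitted effect of over 70% in size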
condition_label: LYMP2-001 lymphoblastoid cell viability; series mostly up to 92.2 µM
Records with an inconclusive call do not appear. Calls of active or inactive are those of the source. Calls follow the shape of the dose curve; as a rule, active = well fitted cell-killing curve with a large enough effect; inconclusive = small, poorly fitted or top-dose-only effect; inactive = no such curve, though single readings can be large or run the other way.
Labels: active, inactive

compound | qualitative_label
Cc1ccc(C(=O)O)cc1[N+](=O)[O-] | inactive
O=[N+]([O-])c1cc(Cl)c(Cl)c(Cl)c1Cl | inactive
CCC(Cl)CC(Cl)C(Cl)C(Cl)C(Cl)C(C)Cl (configuration not stated) | inactive
OC1CCCCC1 | inactive
CC(C)S | inactive
C=CC(=O)CC | inactive
CC(CCC(=O)O)(c1ccc(O)cc1)c1ccc(O)cc1 | inactive
CCCCCCN | inactive
Cc1cccnc1 | inactive
CCCCC(CC)COC(=O)COc1ccc(Cl)cc1Cl (configuration not stated) | inactive
O=C(Cl)c1ccc([N+](=O)[O-])cc1 | inactive
Nc1cc(C(=O)O)c(O)c(S(=O)(=O)O)c1 | inactive
CN(C)c1ccc(C(=N)c2ccc(N(C)C)cc2)cc1 | active
CC(=O)Nc1cccc(C)c1 | inactive
CCCCOC(=O)COc1ccc(Cl)cc1Cl | inactive
C=CC(=O)OCCCCCCOC(=O)C=C | active
c1c[nH]cn1 | inactive
CCNC(=S)NCC | inactive
C=C(C#N)C(=O)OCC | inactive
OCC(CO)(CBr)CBr | inactive
c1cc2c3c(c1)ccc1cccc(c13)C2 | inactive
O=c1[nH]ncc2ccccc12 | inactive
COc1ccc([N+](=O)[O-])cc1N | inactive
CCOC(=O)C1OC1c1ccccc1 (configuration not stated) | inactive
CCOc1ccc2nc(N)sc2c1 | inactive
Oc1c(Cl)cc(Cl)c(Cl)c1Cl | inactive
COc1ccc(C)cc1N | inactive
O=[N+]([O-])c1cc(N(CCO)CCO)ccc1NCCO | inactive
CC(C)COC(=O)COc1cc(Cl)c(Cl)cc1Cl | inactive
NC(=O)Nc1nc2ccccc2[nH]1 | inactive
Brc1ccc(-c2ccccc2)cc1 | inactive
Cc1ccc2ccc3cccc4ccc1c2c34 | inactive
CCCCC(CC)COP(=O)(OCC(CC)CCCC)OCC(CC)CCCC (configuration not stated) | inactive
OCC(CBr)(CBr)CBr | inactive
CC(=O)OC1CC(C)OC(C)O1 (configuration not stated) | inactive
Cc1ccc(S(N)(=O)=O)cc1 | inactive
CCCCCCCCOc1ccc(C(=O)O)cc1 | inactive
c1ccc2ncccc2c1 | inactive
Brc1cc(Oc2cc(Br)c(Br)c(Br)c2Br)c(Br)c(Br)c1Br | inactive
Cc1cc(=O)oc2cc(O)cc(O)c12 | inactive
O=C(O)c1ccc([N+](=O)[O-])cc1 | inactive
O=C(O)/C=C/c1ccc(/C=C/C(=O)O)cc1 | inactive
COc1cc(-c2ccc(N=C=O)c(OC)c2)ccc1N=C=O | inactive
Oc1ccc2c(c1)OCO2 | inactive
CC(=O)CC(=O)Nc1ccccc1 | inactive
Cc1ccc(N)cc1[N+](=O)[O-] | inactive
CC(C)OCC1CO1 (configuration not stated) | inactive
